Origin of values: paper PMC5643073

Assay: in vitro
Settings: human
Test Readout: CC50 at 18 h

compound_structure_string=Cc1cc(SCc2sc(-c3ccc(C(F)(F)F)cc3)nc2C)ccc1OCC(=O)O result="> 33 µM"
